- System: S6RP phosphorylation
- procedure.details: MSD electrochemiluminescent immunoassay in U87MG cells, S6RP phosphorylation
- Format: cell-based, human
- study.conditions: read-out: IC50 for pSer240/244 of S6RP, one hour post-treatment
pIC50: −log10 of the molar value.

[
  {
    "compound": "Clc1ccc(C2(c3ccc(-c4cn[nH]c4)cc3)CCNCC2)cc1 [AT7867]",
    "pIC50": 4.91
  }
]

* * *

- Test system: pSer9 GSK3β
- procedure.details: MSD electrochemiluminescent immunoassay in U87MG cells, pSer9 GSK3β
- Format: cell-based, human
- study.conditions: read-out: IC50 for pSer9 GSK3β, one hour post-treatment
outcome.measure: IC50 (µM)

[
  {
    "cpd.smiles": "Clc1ccc(C2(c3ccc(-c4cn[nH]c4)cc3)CCNCC2)cc1",
    "experimental.system": "pSer9 GSK3β",
    "u": "µM",
    "quantitative.result": 7.1
  }
]
